pKi tested on Adenosine receptor A3 (Homo sapiens): recorded values
Sequence (P0DMS8 whole entry): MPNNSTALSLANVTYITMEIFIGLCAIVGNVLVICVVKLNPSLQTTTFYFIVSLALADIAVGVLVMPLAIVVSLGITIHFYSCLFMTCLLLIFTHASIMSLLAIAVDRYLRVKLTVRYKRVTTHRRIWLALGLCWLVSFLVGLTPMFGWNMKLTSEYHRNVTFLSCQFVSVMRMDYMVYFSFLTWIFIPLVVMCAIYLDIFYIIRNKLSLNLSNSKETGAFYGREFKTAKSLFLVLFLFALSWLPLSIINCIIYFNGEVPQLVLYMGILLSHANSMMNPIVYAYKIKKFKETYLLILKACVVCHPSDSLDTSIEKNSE
Keep it numeric: pKi is minus log10 of the concentration in mol/L.

Example cases with answers are listed next.
INSERT INTO measurements (smiles_data, recorded_measurement) VALUES
  ('CCOC(=O)c1nc(N(C(=O)c2ccc(Br)cc2)C(=O)c2ccc(Br)cc2)nc2nn(C)cc12', 5.54),
  ('CCOC(=O)c1nc(NC(=O)c2ccc(F)cc2)nc2nn(CC(C)(C)C)cc12', 5.37),
  ('CCOC(=O)c1nc(NC(=O)c2ccc(C)cc2)nc2nn(C(C)C)cc12', 4.55);

Now take the following compound into account.
Please fill in: pKi reported for CCOC(=O)c1nc(N(C(=O)c2ccccc2)C(=O)c2ccccc2)nc2nn(C(C)C)cc12 = 5.27

====

# tested_system: Adenosine receptors; A1 & A3 (Homo sapiens) (UniProt P30542+P0DMS8)
# Sequence (P30542 whole entry, looked up, one chain of several): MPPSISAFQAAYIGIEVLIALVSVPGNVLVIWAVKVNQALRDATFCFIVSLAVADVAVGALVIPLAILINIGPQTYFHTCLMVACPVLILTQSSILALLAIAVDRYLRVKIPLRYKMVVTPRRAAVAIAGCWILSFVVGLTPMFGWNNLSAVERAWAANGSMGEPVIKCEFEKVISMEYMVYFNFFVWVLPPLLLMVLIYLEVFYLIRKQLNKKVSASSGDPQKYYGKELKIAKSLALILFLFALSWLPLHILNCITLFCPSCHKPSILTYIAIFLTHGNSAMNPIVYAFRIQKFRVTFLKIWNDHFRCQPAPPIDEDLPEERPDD
# assay_info: Selectivity ratio of Ki for human adenosine A1 receptor to Ki for human adenosine A3 receptor
Mark each entry T if its Ratio Ki sits below 0.6, and F for all others.

Solved entries:
INSERT INTO results (smiles_data, label_value) VALUES
  ('CC(C)(C)Cn1cc2c(C(N)=O)nc(N)nc2n1', 'F'),
  ('CCOC(=O)c1nc(NC(=O)c2ccccc2)nc2nn(CCc3ccccc3)cc12', 'T');

Here's the next entry for you.
Prompt: I'd appreciate it if you could check whether CCOC(=O)c1nc(NC(=O)c2ccc(Br)cc2)nc2nn(CCc3ccccc3)cc12 has Ratio Ki smaller than 0.6.
Completion: F

====

# tested_system: Adenosine receptor A2a (Homo sapiens)
# Sequence (P29274 whole entry): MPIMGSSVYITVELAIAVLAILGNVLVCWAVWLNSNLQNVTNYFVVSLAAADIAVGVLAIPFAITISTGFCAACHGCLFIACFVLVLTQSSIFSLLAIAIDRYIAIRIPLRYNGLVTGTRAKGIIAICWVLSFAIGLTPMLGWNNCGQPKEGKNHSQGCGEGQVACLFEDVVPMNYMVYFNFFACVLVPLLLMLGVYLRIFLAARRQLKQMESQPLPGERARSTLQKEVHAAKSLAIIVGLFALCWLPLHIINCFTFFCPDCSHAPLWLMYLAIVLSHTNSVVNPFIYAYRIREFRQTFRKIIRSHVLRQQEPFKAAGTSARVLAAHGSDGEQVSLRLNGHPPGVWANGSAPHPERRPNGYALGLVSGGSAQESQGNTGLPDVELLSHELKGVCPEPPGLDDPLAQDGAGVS
observed_property: Ki (µM)
Write the answer as a number in µM, unit excluded.

INSERT INTO results (smiles_data, observed_property, recorded_measurement) VALUES
  ('CCOC(=O)c1nc(NC(=O)c2ccc(C(F)(F)F)cc2)nc2nn(CCc3ccccc3)cc12', 'Ki', 7.5),
  ('CCOC(=O)c1nc(NC(=O)Cc2ccccc2)nc2nn(CC(C)(C)C)cc12', 'Ki', 5.7),
  ('CCOC(=O)c1nc(NC(=O)Cc2ccccc2)nc2nn(C)cc12', 'Ki', 7.3),
  ('CCOC(=O)c1nc(N)nc2nn(CC(C)(C)C)cc12', 'Ki', 5),
  ('NC(=O)c1nc(N)nc2nn(CCc3ccccc3)cc12', 'Ki', 15.7);

Please fill in: Ki reported for CCOC(=O)c1nc(N)nc2nn(CCc3ccccc3)cc12 = 4.8

Please fill in: Ki reported for Cn1cc2c(C(N)=O)nc(N)nc2n1 = 3

Please fill in: Ki reported for CCOC(=O)c1nc(NC(=O)c2ccc(F)cc2)nc2nn(CC(C)(C)C)cc12 = 5.7

Please fill in: Ki reported for CCOC(=O)c1nc(NC(=O)c2ccc(F)cc2)nc2nn(C)cc12 = 11.5

Please fill in: Ki reported for CCOC(=O)c1nc(N)nc2nn(C(C)C)cc12 = 2.6

Please fill in: Ki reported for CCOC(=O)c1nc(NC(=O)c2ccccc2)nc2nn(C)cc12 = 16.1

Please fill in: Ki reported for CCOC(=O)c1nc(NC(=O)Cc2ccccc2)nc2nn(CCc3ccccc3)cc12 = 2.4

Please fill in: Ki reported for CCOC(=O)c1nc(NC(=O)c2ccc(C)cc2)nc2nn(C)cc12 = 11.8

Please fill in: Ki reported for CCOC(=O)c1nc(NC(=O)Cc2ccccc2)nc2nn(C(C)C)cc12 = 8.8

Please fill in: Ki reported for CCOC(=O)c1nc(NC(=O)c2ccccc2)nc2nn(C(C)C)cc12 = 3.3

meta.source: ChEMBL document CHEMBL3407439
